Just for reference, paper PMC3944524 is where these values come from.

Assay: Mammalian cell cytotoxicity, ATP assay (CellTiter-Glo)
Assay type: cell-based, human
Settings: human, Huh-7 cells, ATP assay, 24 h exposure, average of two dose-response experiments
Experimental: Huh-7 cells (originating from human hepatocellular carcinoma) were kindly provided by Prof. Ralf Bartenschlager (University of Heidelberg, Heidelberg, Germany). […] The cells were incubated at 37 °C in a humidified atmosphere with 5% CO2. The effect of the most promising compounds on the metabolic activity of Huh-7 hepatocytes was assessed by intracellular ATP quantitation (Promega’s CellTiter-Glo Cell Viability Assay, Madison, WI, USA). […]
Result type: IC50 at 24 h (µM)
Field: numeric (µM). Do not append units.

Guide cases for IC50 at 24 h, answers given:
INSERT INTO assay_data (smiles_repr, result_type, unit_label, obs_value) VALUES
  ('Cl.Nc1nc(-c2cccc(NC(=O)c3cc4cc(F)ccc4[nH]3)c2)c[nH]1', 'IC50 at 24 h', 'µM', 19.8),
  ('Cl.Nc1nc(-c2cccc(NC(=O)c3cc4sccc4[nH]3)c2)c[nH]1', 'IC50 at 24 h', 'µM', 53.6),
  ('Cl.Nc1nc(-c2cccc(NC(=O)c3cc4cc(OCc5ccccc5)ccc4[nH]3)c2)c[nH]1', 'IC50 at 24 h', 'µM', 21.2),
  ('COc1ccc2[nH]c(C(=O)Nc3cccc(-c4c[nH]c(N)n4)c3)cc2c1.Cl', 'IC50 at 24 h', 'µM', 32.2),
  ('Nc1nc(-c2cccc(NC(=O)c3cc4ccccc4[nH]3)c2)c[nH]1', 'IC50 at 24 h', 'µM', 42.3);

Fill blank: measured IC50 at 24 h of the compound CNc1nc(-c2cccc(NC(=O)c3cc4ccccc4[nH]3)c2)c[nH]1 is ____.
52.3

Also Cl.Nc1nc(-c2cccc(NC(=O)c3cc4cc(Cl)ccc4[nH]3)c2)c[nH]1 , if possible.
21.7

Also CC(C)(C)OC(=O)n1cc(-c2cccc(NC(=O)c3cc4cc(O)ccc4[nH]3)c2)nc1N , if possible.
94
